- experimental.system: T1, human IL-10 receptor (hIL-10R alpha and beta chains) on HEK-Blue IL-10 reporter cells (human, UniProt Q13651 22-578; Q08334 20-325)
- T1 sequence 1: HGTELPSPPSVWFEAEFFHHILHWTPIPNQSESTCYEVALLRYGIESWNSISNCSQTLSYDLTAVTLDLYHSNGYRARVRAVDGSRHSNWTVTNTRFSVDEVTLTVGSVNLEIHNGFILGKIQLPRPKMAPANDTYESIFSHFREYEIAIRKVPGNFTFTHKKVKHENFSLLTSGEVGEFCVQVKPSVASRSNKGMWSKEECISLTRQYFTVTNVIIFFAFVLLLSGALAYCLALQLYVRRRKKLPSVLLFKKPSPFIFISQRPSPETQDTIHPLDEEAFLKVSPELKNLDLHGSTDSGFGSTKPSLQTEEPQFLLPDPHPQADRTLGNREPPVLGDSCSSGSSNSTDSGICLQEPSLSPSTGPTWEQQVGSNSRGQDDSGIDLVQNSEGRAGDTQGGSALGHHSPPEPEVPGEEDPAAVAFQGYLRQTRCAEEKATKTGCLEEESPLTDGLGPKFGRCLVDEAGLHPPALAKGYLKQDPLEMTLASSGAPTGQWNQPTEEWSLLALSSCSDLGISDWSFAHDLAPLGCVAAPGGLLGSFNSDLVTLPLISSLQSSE
- T1 sequence 2: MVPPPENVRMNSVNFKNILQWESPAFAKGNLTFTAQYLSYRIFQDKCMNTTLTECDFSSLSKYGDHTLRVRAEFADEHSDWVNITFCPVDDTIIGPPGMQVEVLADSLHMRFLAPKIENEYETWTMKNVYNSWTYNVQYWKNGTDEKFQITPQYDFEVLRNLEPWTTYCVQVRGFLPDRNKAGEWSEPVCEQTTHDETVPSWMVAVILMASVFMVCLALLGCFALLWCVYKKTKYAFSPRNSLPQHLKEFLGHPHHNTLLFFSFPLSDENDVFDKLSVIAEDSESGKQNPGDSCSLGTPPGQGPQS
- test.summary: cell-based or functional assay
readout.name: Abs 630 (100 nM) (Abs 630)
Give just the numeric value; Abs 630 need not be written.

Per the record, IL10R binding molecule of SEQ ID NO: 270 (bispecific antibody) QVQLQESGGGSVQAGGSLRLSCAASGYTYSMYCMGWFRQAPGKEREGVAQINSDGSTSYADSVKGRFTISKDNAKNTLYLQMNSLKPEDTAMYYCAADSRVYGGSWYERLCGPYTYEYNYWGQGTQVTVSSGGGSQVQLQESGGGSVQAGGSLRLSCAASGYTYSSGCMGWFRQAPGKEREAVAAINSDGSTSYADSVKGRFTISKDNAKNTLYLQMNSLKPEDTAMYYCAAEPYCSGGYPRWSVAEFGYWGQGTQVTVSSASHHHHHH has Abs 630 (100 nM) of 0.73
